Sourced from PubChem BioAssay (NCATS)

# Tested on: CRL-7250
# protocolSummary: Cytotoxic Profiling of Annotated Libraries Using Quantitative High-Throughput Screening (AID 1296008); further: nearly all actives have a fitted effect of over 60% in size
# experimentalSetup: Five cell lines viability, CellTiter-Glo ATP luminescence, 48-72 h
Records with an inconclusive call do not appear. Active and inactive are the calls of the source. The call rests on the fitted dose curve; in most records, active means well fitted inhibition curve with a large enough effect; inconclusive means small, poorly fitted or top-dose-only effect; inactive means flat fitted curve, though single readings scatter.
Please reply with one of these outcomes: active, inactive

{"compound": "CCOC(=O)N1c2ccc(C(F)(F)F)cc2[C@@H](N(Cc2cc(C(F)(F)F)cc(C(F)(F)F)c2)C(=O)OC)C[C@H]1CC", "group": "active"}
{"compound": "COC1CCC(C(=O)c2ccc3nc4c(cc3c2)CCCO4)CC1 (stereo not given)", "group": "inactive"}
{"compound": "COc1ccc(-c2nc3ccc(C4=NNC(=O)CC4C)cc3[nH]2)cc1 (stereo not given)", "group": "inactive"}
{"compound": "CC1CCN(c2cc(N3CCN(C)CC3)ccc2NC(=O)c2cc(C#N)c[nH]2)CC1", "group": "inactive"}
{"compound": "COc1ccc2c(c1)c(C1=C(c3c[nH]c4ccccc34)C(=O)NC1=O)cn2CCCN(C)C", "group": "inactive"}

Task item: Call for entry CCN1C[C@H](C)n2c(c(O)c3c(=O)n(Cc4ccc(F)c(Cl)c4)nc(C(=O)NC)c32)C1=O :
Reply: inactive

Task item: Call for entry CCNC(=O)c1noc(-c2cc(C(C)C)c(O)cc2O)c1-c1ccc(CN2CCOCC2)cc1 :
Reply: active

Task item: Call for entry Cc1cccc(Nc2nc(N[C@@H]3CCCC[C@H]3N)ncc2C(N)=O)c1 :
Reply: inactive

Task item: Call for entry COc1ccc(-c2cc3nccn3c(Nc3ncccc3C(N)=O)n2)cc1OC :
Reply: active

Task item: Call for entry CN(C)CCOc1cc(-c2cn[nH]c2)ccc1NC(=O)C1COc2ccccc2O1 (stereo not given) :
Reply: inactive

Task item: Call for entry Cc1cc2nc3c(=O)[nH]c(=O)nc-3n(CC(O)C(O)C(O)CO)c2cc1C (stereo not given) :
Reply: inactive

Task item: Call for entry CC(C)(C)c1[nH]cnc1C=c1[nH]c(=O)c(=Cc2ccccc2)[nH]c1=O :
Reply: active

Task item: Call for entry COc1cc([C@H]2Oc3cc([C@H]4Oc5cc(O)cc(O)c5C(=O)[C@H]4O)ccc3O[C@H]2CO)ccc1O :
Reply: inactive

Task item: Call for entry O=c1[nH]nc(OCCCc2ccc(Cl)cc2)c(NCc2cccnc2)c1Br :
Reply: active

Task item: Call for entry Cc1ccccc1C(C(=O)NC1CCCCC1)N(C(=O)CNc1ccc(C#N)cc1)c1cccc(F)c1 (stereo not given) :
Reply: inactive

Task item: Call for entry NCc1c[nH]c(=S)n1[C@H]1CCc2c(F)cc(F)cc2C1 :
Reply: active

Task item: Call for entry C[C@@H]1CCO[C@H]2Cn3cc(C(=O)NCc4ccc(F)cc4F)c(=O)c(O)c3C(=O)N12 :
Reply: inactive

---

# protocolSummary: Quantitative High-Throughput drug screen in 47 multiple myeloma cell lines against the NCATS MIPE library collection: OCIMY1_PLB cell viability assay (AID 1918979); further: nearly all actives have a fitted effect of over 35% in size; further: potency means the concentration at half of the fitted maximal effect
# experimentalSetup: OCI-MY1 myeloma viability, CellTiter-Glo ATP, 48 h; series mostly up to 45.8 µM
Records with an inconclusive call do not appear. The source made the active and inactive calls. Calls come from the whole dose curve; as a rule, active = well fitted cell-killing curve with a large enough effect; inconclusive = small, poorly fitted or top-dose-only effect, or effect the other way; inactive = no such curve, though single readings can be large or run the other way.
readoutLabel: Potency

The cases that follow already have their Potency on record.
{"compound": "COc1cc(CNC(=O)CCCCC=CC(C)C)ccc1O", "Potency": "inactive"}
{"compound": "CCCCCOC(=O)Nc1nc(=O)n([C@@H]2O[C@H](C)[C@@H](O)C2O)cc1F (stereo partly specified)", "Potency": "inactive"}
{"compound": "COc1ccc(C=CC(=O)Nc2ccccc2C(=O)O)cc1OC", "Potency": "inactive"}
{"compound": "CN1c2ccccc2C(=O)N2CCc3c([nH]c4ccccc34)C21 (stereo unspecified)", "Potency": "inactive"}
{"compound": "Cc1cc(-c2ncc(CC(=O)Nc3ccc(-c4cnccn4)cn3)cc2C)ccn1", "Potency": "inactive"}
{"compound": "Cc1nc(C(=O)NCC(=O)O)c(O)c2ccc(Oc3ccccc3)cc12", "Potency": "inactive"}

Below are some compounds; for each one, tell me its Potency.
1. CC(=O)OCC(=O)[C@@]1(O)CC[C@H]2[C@@H]3CCC4=CC(=O)C=C[C@]4(C)[C@@H]3[C@@H](O)C[C@@]21C
2. CNc1nc(-c2ccc3c(N)n[nH]c3c2)cc(N2C[C@@H](C(=O)NC3CCCCC3)CC[C@@H]2C)n1
3. CN1CC(=O)NC1=NC(=O)Nc1cccc(Cl)c1
4. CN(C)CCN(C)C(=O)c1ccc(NC(=O)Nc2ccc(-c3nc(N4CCOCC4)c4ccn(CC(F)(F)F)c4n3)cc2)cc1
5. O=C1CCCC(=O)C1C(=O)c1ccc(C(F)(F)F)cc1[N+](=O)[O-]

Reply:
1: inactive; 2: 18.7 µM (active); 3: 26.4 µM (active); 4: 7.43 µM (active); 5: inactive

---

# protocolSummary: S16 Schwann cell PMP22 intronic element beta-lactamase assay (AID 624044); further: nearly all actives have a fitted effect of over 15% in size
# experimentalSetup: S16 rat Schwann cells, PMP22 element beta-lactamase FRET, 24 h; series mostly up to 38.3 µM
Inconclusive results are not listed. The source made the active and inactive calls. Calls follow the shape of the full dose curve.
readoutLabel: outcome

{"molecule": "Fc1ccc(C(c2ccc(F)cc2)N2CCN(CC=Cc3ccccc3)CC2)cc1", "testResult": "inactive"}
{"molecule": "NCC1CCC(C(=O)O)CC1 (stereo not given)", "testResult": "inactive"}
{"molecule": "Clc1ccc(COC(Cn2ccnc2)c2ccc(Cl)cc2Cl)c(Cl)c1 (stereo not given)", "testResult": "inactive"}
{"molecule": "O=C1C(CCC(O)c2ccc(F)cc2)C(c2ccc(O)cc2)N1c1ccc(F)cc1 (stereo not given)", "testResult": "inactive"}

Below: the item to evaluate.
molecule C=C1c2cccc(O)c2C(O)=C2C(=O)[C@@]3(O)C(O)=C(C(N)=O)C(=O)[C@@H](N(C)C)[C@@H]3[C@@H](O)[C@H]12 , outcome observed: inactive

---

# protocolSummary: Quantitative High-Throughput drug screen in 47 multiple myeloma cell lines against the NCATS MIPE library collection: Karpas25_ECACC cell viability assay (AID 1918968; further: nearly all actives have a fitted effect of over 35% in size)
# experimentalSetup: Karpas25 myeloma viability, CellTiter-Glo ATP, 48 h; series mostly up to 45.8 µM
Results filed as inconclusive are left out. The source made the active and inactive calls. The call rests on the fitted dose curve; in most records, active means well fitted cell-killing curve with a large enough effect; inconclusive means small, poorly fitted or top-dose-only effect, or effect the other way; inactive means no such curve, though single readings can be large or run the other way.
Please reply with one of these outcomes: active, inactive

Example results:
{"molecule": "C=C1c2cccc(O)c2C(O)=C2C(=O)[C@@]3(O)C(O)=C(C(N)=O)C(=O)[C@@H](N(C)C)[C@@H]3[C@@H](O)[C@H]12", "group": "active"}
{"molecule": "CC(C)CN(C[C@@H](O)[C@H](Cc1ccccc1)NC(=O)O[C@H]1CO[C@H]2OCC[C@H]21)S(=O)(=O)c1ccc(N)cc1", "group": "active"}
{"molecule": "CCN1C[C@H](C)n2c(c(O)c3c(=O)n(Cc4ccc(F)c(Cl)c4)nc(C(=O)NC)c32)C1=O", "group": "inactive"}
{"molecule": "O=c1[nH]c(=O)n([C@H]2C[C@@H](O)[C@@H](CO)O2)cc1I", "group": "inactive"}
{"molecule": "NS(=O)(=O)c1ccc(Nc2nc(OCC3CCCCC3)c3[nH]cnc3n2)cc1", "group": "active"}

Now examine the next entry.
Task item: Call for entry Cc1ccc(S(=O)(=O)OCC(=O)Nc2ccc(C(=O)O)c(O)c2)cc1 :
Reply: active

---

# protocolSummary: Quantitative High-Throughput drug screen in 47 multiple myeloma cell lines against the NCATS MIPE library collection: KMS26_JCRB cell viability assay (AID 1918975); further: potency means the concentration at half of the fitted maximal effect; nearly all actives have a fitted effect of over 45% in size
# experimentalSetup: KMS26 myeloma cells viability, CellTiter-Glo ATP, 48 h; series mostly up to 45.8 µM
Results filed as inconclusive are left out. Activity calls are given as the source filed them. The call rests on the fitted dose curve; in most records, active means well fitted cell-killing curve with a large enough effect; inconclusive means small, poorly fitted or top-dose-only effect, or effect the other way; inactive means no such curve, though single readings can be large or run the other way.
Please reply with one of these outcomes: active, inactive

{"molecule": "CCC[C@H](Nc1nc(-c2ccc(NC(=O)NCC)c(OC)c2)ncc1C)c1cccnc1", "group": "active"}
{"molecule": "CC(C)(O)CC(=O)NCCn1ccc2ncnc(Nc3ccc(Oc4cccc(C(F)(F)F)c4)c(Cl)c3)c21", "group": "active"}
{"molecule": "CC[C@H](CC#N)OC(=O)N[C@@H](C)c1cccc(NC(=O)Nc2ccc(-c3cnco3)c(OC)c2)c1", "group": "active"}
{"molecule": "CCC(=O)N1CCN(c2ccc(-n3c(=O)ccc4cnc5ccc(-c6cnc7ccccc7c6)cc5c43)cc2C(F)(F)F)CC1", "group": "active"}
{"molecule": "O=C(C=Cc1ccc(O)cc1)c1ccc(O)cc1O", "group": "active"}

Task item: Call for entry Cc1ccc(NC(=O)Nc2cc(C(F)(F)F)ccc2F)cc1Nc1ccc2c(c1)NC(=O)C2=Cc1ccc[nH]1 :
Reply: active

Task item: Call for entry Nc1ncnc2c1ncn2[C@@H]1O[C@H](CO)[C@@H](O)[C@@H]1O :
Reply: active
